Molecular target: human constitutive 20S proteasome (c20S) (Homo sapiens)
Assay: 20S proteasome assay, chymotrypsin-like activity (succinyl-Leu-Leu-Val-Tyr-AMC), c20S
Type: biochemical
Conditions: LLVY substrate, 1 h continuous
Reported IC50 values follow for various molecules
Kindly answer with a numeric value in nM, unit omitted.

Recorded IC50, per entry:
RECORD_SMILES | MEASURED_QUANTITY | DATA_VALUE
C[C@H](NC(=O)CN1CCOCC1)C(=O)N[C@@H](Cc1ccc(C#N)cc1)C(=O)N[C@@H](CC1CCCC1)C(=O)[C@@]1(C)CO1 | IC50 | 277
C[C@H](NC(=O)CN1CCOCC1)C(=O)N[C@@H](Cc1ccc(F)cn1)C(=O)N[C@@H](Cc1ccccc1)C(=O)[C@@]1(C)CO1 | IC50 | 301

Query string: # query: IC50 of entry `COc1ccc(C[C@H](NC(=O)[C@@H](C)NC(=O)[C@H]2CC[C@@H](O)CC2)C(=O)N[C@@H](CC2=CCCC2)C(=O)[C@@]2(C)CO2)cc1`
Result string: 46.8

----------
// solubility lookup, one value per entry
Test: Solubility pH 7
Conditions: pH 7, aqueous buffer
Use mg/mL as the unit, but write only the number.

Known solubility results, listed for orientation:
MOLECULE | solubility / mg/mL
COc1ccc(C[C@H](NC(=O)[C@H](C)NC(=O)CN2CCOCC2)C(=O)N[C@@H](CC2=C(C)CCC2)C(=O)[C@@]2(C)CO2)cc1 [Compound C-1044] | 1.9
C[C@H](NC(=O)CN1CCOCC1)C(=O)N[C@@H](Cc1ccc2c(c1)OCO2)C(=O)N[C@@H](CC1CCCC1)C(=O)[C@@]1(C)CO1 [Compound C-1012] | 1.72

Query string: Value lookup for solubility; key = C[C@H](NC(=O)CN1CCOCC1)C(=O)N[C@@H](Cc1ccc(O)cc1)C(=O)N[C@@H](CC1CCCC1)C(=O)[C@@]1(C)CO1 [Compound C-1113]
Result string: 3.79

Query string: Value lookup for solubility; key = COc1ccc(C[C@H](NC(=O)[C@@H](NC(=O)CN2CCOCC2)C2(O)CC2)C(=O)N[C@@H](Cc2ccccc2)C(=O)[C@@]2(C)CO2)cc1 [Compound C-1184]
Result string: 2.73

----------
Target: human 20S immunoproteasome (i20S) (Homo sapiens)
Test: 20S proteasome assay, chymotrypsin-like activity (succinyl-Leu-Leu-Val-Tyr-AMC), i20S
Type: biochemical
Conditions: read-out: LLVY i20S Hu 1 h CONT: IC50, LLVY substrate, 1 h continuous
Measured pIC50 of individual entries
Keep it numeric: pIC50 is minus log10 of the concentration in mol/L.

Sample answers from the record:
COMPOUND | TARGET_OR_TEST_SYSTEM | MEASURED_QUANTITY | DATA_VALUE
COc1ccc(C[C@H](NC(=O)[C@H](C)NC(=O)CN2CCOCC2)C(=O)N[C@@H](Cc2cccc(F)c2)C(=O)[C@@]2(C)CO2)cc1 [Compound C-1180] | human 20S immunoproteasome (i20S) (Homo sapiens) | pIC50 | 7.59
COc1ccc(C[C@H](NC(=O)[C@H](C)NC(=O)NN2CCOCC2)C(=O)N[C@@H](Cc2ccccc2)C(=O)[C@@]2(C)CO2)cc1 [Compound C-1178] | human 20S immunoproteasome (i20S) (Homo sapiens) | pIC50 | 6.62

Could you now look at the following compound, please?
Query string: pIC50 lookup needed for COc1ccc(C[C@H](NC(=O)[C@@H](NC(=O)CN2CCOCC2)C2COC2)C(=O)N[C@@H](Cc2ccccc2)C(=O)[C@@]2(C)CO2)cc1 [Compound C-1183] , thanks.
Result string: 7.67

Value source: patent USRE47302E1
